experimental-target: Sirt2_56–356 (Homo sapiens, UniProt Q8IXJ6)
Construct: human strep-tagged Sirt2_56–356 was expressed and purified; strep-tag; made in house
Sequence (Q8IXJ6 56-356): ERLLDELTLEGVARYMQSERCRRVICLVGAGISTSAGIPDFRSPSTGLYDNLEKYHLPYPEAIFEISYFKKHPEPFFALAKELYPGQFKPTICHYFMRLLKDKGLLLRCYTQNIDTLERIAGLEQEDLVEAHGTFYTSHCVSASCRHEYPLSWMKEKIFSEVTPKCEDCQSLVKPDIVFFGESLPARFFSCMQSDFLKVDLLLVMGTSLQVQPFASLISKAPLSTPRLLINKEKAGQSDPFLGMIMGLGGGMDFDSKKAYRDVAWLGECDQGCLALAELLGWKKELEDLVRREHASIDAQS
assay-remarks: Fluorescence polarization assay (FPA), displacement of SirReal-TAMRA probe
Assay type: binding
assay-conditions: 125 µM compound
Threshold check on FP-Assay Inhibition (%) at 125 µM: strictly below 20% is yes; on or above 20% is no.

Data request: Hello, is FP-Assay Inhibition (%) at 125 µM of the following compound strictly smaller than 20%? `Nc1ccccc1-c1cccs1`
Data returned: no

Data request: Hello, is FP-Assay Inhibition (%) at 125 µM of the following compound strictly smaller than 20%? `c1ccc2c(CN3CCOCC3)csc2c1`
Data returned: no

// data source = paper PMC12169609
